Provide the recorded FIC index for the entries that follow.
System: E. coli MDR clinical isolates
Experiment: FIC index, synergy with antibiotics (Table 4a)
Assay type: cell-based
Conditions: with Ciprofloxacin; 8 MDR E. coli; mean; compound at ¼ of MIC
One number for each entry.

Molecule	Meas Value
OCCN1CCC(CC/C=C2\c3ccccc3Sc3ccc(Cl)cc32)CC1	0.47

// input: 3 molecules below; output: FIC index for each
1. OCCN1CCN(CC/C=C2\c3ccccc3Sc3ccc(Cl)cc32)CC1 [Compound 2, trans-clopentixol]
2. Clc1ccc2c(c1)/C(=C/CCN1CCNCC1)c1ccccc1S2 [Compound 1, N-dealkyl-transclopenthixol]
3. Clc1ccc2c(c1)/C(=C/CCC1CCNCC1)c1ccccc1S2

1. 0.44
2. 0.47
3. 0.44

----------
Tested on: MT4 cells
Assay: Cytotoxic effect in uninfected MT4 cultures
Type: cell-based
Conditions: read-out: CC50 A + C3 (1 μM); AZT in presence of compound 3 at 1 μM
Measure Name: CC50

Requested read-out: CC50. Entry: Cc1cn([C@H]2C[C@H](N=[N+]=[N-])[C@@H](CO)O2)c(=O)[nH]c1=O [AZT, 3′-Azido-3′-deoxythymidine]
> 3000 nM

----------
Tested on: E. coli MDR clinical isolates
Test: FIC index, synergy with antibiotics (Table 4a)
Assay type: cell-based
Conditions: with Ampicillin; 8 MDR E. coli; mean; compound at ¼ of MIC
I'd appreciate it if you could supply FIC index values for the items below.
Answers are plain numbers.

Example cases with answers are listed next.
Compound	Tgt	Meas Value
Clc1ccc2c(c1)/C(=C/CCC1CCNCC1)c1ccccc1S2	E. coli MDR clinical isolates	0.44
OCCN1CCC(CC/C=C2\c3ccccc3Sc3ccc(Cl)cc32)CC1	E. coli MDR clinical isolates	0.44
Clc1ccc2c(c1)/C(=C/CCN1CCNCC1)c1ccccc1S2 [Compound 1, N-dealkyl-transclopenthixol]	E. coli MDR clinical isolates	0.47

Field: next compound
Can you share its FIC index? I mean this compound: OCCN1CCN(CC/C=C2\c3ccccc3Sc3ccc(Cl)cc32)CC1 [Compound 2, trans-clopentixol]
0.47

----------
Kindly supply the reported Fold enhanced, compound 2 0.98 ug/ml values for the records listed here.
Tested on: Multiresistant clinical isolates of S. aureus and S. epidermidis
Assay: Maximal reversal of resistance and synergistic effect (Table 4b)
Type: cell-based
Details: enhancement of antibiotic by compound 2 at 0.98 ug/ml

As a guide, the following entries are already answered.
Substance Smiles	Fold enhanced, compound 2 0.98 ug/ml
CC1(C)S[C@@H]2[C@H](NC(=O)Cc3ccccc3)C(=O)N2[C@H]1C(=O)O	8 (8)
CC1(C)S[C@@H]2[C@H](NC(=O)[C@H](N)c3ccccc3)C(=O)N2[C@H]1C(=O)O	4 (4)
CN(C)[C@@H]1C(=O)C(C(N)=O)=C(O)[C@@]2(O)C(=O)C3=C(O)c4c(O)cccc4[C@@](C)(O)[C@H]3C[C@@H]12	2

Give its Fold enhanced, compound 2 0.98 ug/ml value. Item: CC[C@H]1OC(=O)[C@H](C)[C@@H](O[C@H]2C[C@@](C)(OC)[C@@H](O)[C@H](C)O2)[C@H](C)[C@@H](O[C@@H]2O[C@H](C)C[C@H](N(C)C)[C@H]2O)[C@](C)(O)C[C@@H](C)C(=O)[C@H](C)[C@@H](O)[C@]1(C)O
4 (4)
